STUDY SYSTEM: Type-1 angiotensin II receptor (Homo sapiens, UniProt P30556)
Sequence (P30556 whole entry): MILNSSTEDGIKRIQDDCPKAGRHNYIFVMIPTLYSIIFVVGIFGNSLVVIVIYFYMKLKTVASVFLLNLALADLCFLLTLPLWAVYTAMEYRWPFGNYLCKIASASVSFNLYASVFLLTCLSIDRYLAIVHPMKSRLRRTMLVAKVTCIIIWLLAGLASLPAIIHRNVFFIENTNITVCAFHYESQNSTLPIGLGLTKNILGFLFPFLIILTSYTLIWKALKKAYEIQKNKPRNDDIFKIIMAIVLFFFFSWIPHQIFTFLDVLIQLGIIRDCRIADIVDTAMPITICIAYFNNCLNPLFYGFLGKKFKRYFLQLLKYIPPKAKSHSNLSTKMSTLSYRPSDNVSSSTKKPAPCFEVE
RUN DESCRIPTION: Displacement of [125I-Sar1-Ile8]-ANG2 from human Angiotensin 2 type-1 receptor expressed in HEK293 cells after 1 hr by gamma counting analysis
Format: cell-based
MEASUREMENT LABEL: IC50 (nM)

Problem: What does the record list as IC50 for CCCCc1c[n+](Cc2ccc(-c3ccccc3-c3nn[n-]n3)cc2)cn1Cc1ccc(-c2ccccc2-c2nn[nH]n2)cc1 ?
Result: 0.912

Problem: Try this compound next: CCCCc1n(Cc2ccc(-c3ccccc3-c3nn[nH]n3)cc2)c(CO)c(Cl)[n+]1Cc1ccc(-c2ccccc2-c2nn[nH]n2)cc1
Result: 417

Problem: Try this compound next: CCCCc1c[n+](Cc2ccc(-c3ccccc3C(=O)O)cc2)c(CO)n1Cc1ccc(-c2ccccc2C(=O)O)cc1
Result: 501

I. CCCCc1c(Cl)[n+](Cc2ccc(-c3ccccc3-c3nn[nH]n3)cc2)cn1Cc1ccc(-c2ccccc2-c2nn[nH]n2)cc1
II. CCCCc1c(Br)[n+](Cc2ccc(-c3ccccc3-c3nn[nH]n3)cc2)c(CO)n1Cc1ccc(-c2ccccc2-c2nn[nH]n2)cc1.[Br-]
III. CCCCc1n(Cc2ccc(-c3ccccc3-c3nn[nH]n3)cc2)cc[n+]1Cc1ccc(-c2ccccc2-c2nn[nH]n2)cc1
Problem: Given 3 compounds, produce a descending ranking by IC50. Please list the labels according to the requested order.
Result: III, I, II
(III: 1700 nM, I: 832 nM, II: 42.7 nM)

P. CCCCc1c[n+](Cc2ccc(-c3ccccc3C(=O)O)cc2)cn1Cc1ccc(-c2ccccc2C(=O)O)cc1
Q. CCCCc1c(Br)[n+](Cc2ccc(-c3ccccc3-c3nn[nH]n3)cc2)cn1Cc1ccc(-c2ccccc2-c2nn[nH]n2)cc1
Problem: Which gives the smaller IC50 number: P or Q ? # reply format: chosen label
Result: P

Data credit: ChEMBL document CHEMBL2331233
